assay: melting temperature; melt of duplexes; conditions: sodium 0.0675 M; strand 1 µM
Would you please tag the item rule met when its Tm is 50 °C or above, and rule not met when it is below?

I'd appreciate it if you could say whether CGACGTGCATAATGTGCTG+CAGCACATCGGGCACGTCG ((((((((...((((((((+))))))))...)))))))) has Tm at least equal to 50 °C.
rule not met

I'd appreciate it if you could say whether CGACGTGCTTCATGTGCTG+CAGCACATCCCGCACGTCG ((((((((...((((((((+))))))))...)))))))) has Tm at least equal to 50 °C.
rule not met

I'd appreciate it if you could say whether CGACGTGCGTTATGTGCTG+CAGCACATAAGGCACGTCG ((((((((.((((((((((+)))))))))).)))))))) has Tm at least equal to 50 °C.
rule met

I'd appreciate it if you could say whether CGACGTGCAGAATGTGCTG+CAGCACATGCAGCACGTCG ((((((((.(.((((((((+)))))))).).)))))))) has Tm at least equal to 50 °C.
rule met

I'd appreciate it if you could say whether CGACGTGCCCCATGTGCTG+CAGCACATTCTGCACGTCG ((((((((...((((((((+))))))))...)))))))) has Tm at least equal to 50 °C.
rule not met

I'd appreciate it if you could say whether CGACGTGCTTGATGTGCTG+CAGCACATCGCGCACGTCG ((((((((..(((((((((+)))))))))..)))))))) has Tm at least equal to 50 °C.
rule met

I'd appreciate it if you could say whether CGACGTGCTGAATGTGCTG+CAGCACATTCAGCACGTCG (((((((((((((((((((+))))))))))))))))))) has Tm at least equal to 50 °C.
rule met

I'd appreciate it if you could say whether CGACGTGCGGCATGTGCTG+CAGCACATTTAGCACGTCG ((((((((...((((((((+))))))))...)))))))) has Tm at least equal to 50 °C.
rule met

* * *

assay: melting temperature; melt of duplexes; conditions: sodium 0.0675 M; strand 1 µM
measurement.label: Tm (°C)
Output spec: scalar in °C, unitless text.

get_value(item= CGACGTGCCATATGTGCTG+CAGCACATTGCGCACGTCG ((((((((...((((((((+))))))))...)))))))) , readout=Tm) returns 51.5

get_value(item= CGACGTGCACTATGTGCTG+CAGCACATCTAGCACGTCG ((((((((...((((((((+))))))))...)))))))) , readout=Tm) returns 42.4

get_value(item= CGACGTGCGAGATGTGCTG+CAGCACATTATGCACGTCG ((((((((...((((((((+))))))))...)))))))) , readout=Tm) returns 51.6

get_value(item= CGACGTGCGCCATGTGCTG+CAGCACATATTGCACGTCG ((((((((...((((((((+))))))))...)))))))) , readout=Tm) returns 47.3

get_value(item= CGACGTGCTATATGTGCTG+CAGCACATTACGCACGTCG ((((((((...((((((((+))))))))...)))))))) , readout=Tm) returns 49.3

get_value(item= CGACGTGCTACATGTGCTG+CAGCACATAGAGCACGTCG (((((((((..((((((((+))))))))..))))))))) , readout=Tm) returns 52.5

get_value(item= CGACGTGCGGAATGTGCTG+CAGCACATAATGCACGTCG ((((((((...((((((((+))))))))...)))))))) , readout=Tm) returns 52

get_value(item= CGACGTGCTAGATGTGCTG+CAGCACATGCTGCACGTCG ((((((((...((((((((+))))))))...)))))))) , readout=Tm) returns 49.3

get_value(item= CGACGTGCATGATGTGCTG+CAGCACATGACGCACGTCG ((((((((.(.((((((((+)))))))).).)))))))) , readout=Tm) returns 46.2

get_value(item= CGACGTGCAGGATGTGCTG+CAGCACATCCAGCACGTCG ((((((((.((((((((((+)))))))))).)))))))) , readout=Tm) returns 59.8

get_value(item= CGACGTGCTTTATGTGCTG+CAGCACATGTCGCACGTCG ((((((((...((((((((+))))))))...)))))))) , readout=Tm) returns 47.8

get_value(item= CGACGTGCTATATGTGCTG+CAGCACATATCGCACGTCG ((((((((.((((((((((+)))))))))).)))))))) , readout=Tm) returns 54.9

get_value(item= CGACGTGCCTCATGTGCTG+CAGCACATGTTGCACGTCG ((((((((..(((((((((+)))))))))..)))))))) , readout=Tm) returns 52.3

get_value(item= CGACGTGCTTAATGTGCTG+CAGCACATCAAGCACGTCG ((((((((((.((((((((+)))))))).)))))))))) , readout=Tm) returns 55

get_value(item= CGACGTGCTATATGTGCTG+CAGCACATCATGCACGTCG ((((((((...((((((((+))))))))...)))))))) , readout=Tm) returns 50.2
